Values compiled from patent US8338565B2.

- target entity: TNFα / TNFα receptor (TNFα R1/Fc) (Homo sapiens)
- Construct: purchased R&D Systems
- Sequence (P01375 77-233 limits assumed, species assumed): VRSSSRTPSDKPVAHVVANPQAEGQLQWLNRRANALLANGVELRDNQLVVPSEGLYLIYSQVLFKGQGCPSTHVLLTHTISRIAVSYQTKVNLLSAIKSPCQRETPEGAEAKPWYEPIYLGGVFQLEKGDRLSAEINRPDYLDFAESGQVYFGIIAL
- measurement protocol: Inhibition of binding of TNFα to the TNFα receptor (plate ELISA competition)
- test settings: Table 2; read-out: Activity (IC50, inhibition of TNFα binding to TNFα R1/Fc)
value kind: IC50

## Input Given the entry `O=C1COc2ccc(cc2)C[C@@H](C(=O)O)NC(=O)[C@H](Cc2ccc(-c3ccccc3)cc2)NC(=O)[C@@H](Cc2ccc(-c3ccccc3)cc2)NC(=O)[C@H](CCc2ccccc2)N1` , report its measured IC50.
## Output < 10 µM

## Input Which IC50 value is on record for `O=C(O)CCNC(=O)[C@@H]1Cc2ccc(cc2)NC(=O)[C@H](O)[C@@H](O)C(=O)N[C@H](Cc2cccs2)C(=O)N[C@@H](Cc2ccc(-c3ccccc3)cc2)C(=O)N[C@H](CCc2ccccc2)C(=O)N1` ?
## Output < 10 µM

## Input # get_value(readout='IC50', item= `O=C(O)CCCNC(=O)[C@@H]1Cc2ccc(cc2)OCC(=O)N[C@@H](Cc2ccc(-c3ccccc3)cc2)C(=O)N[C@H](Cc2ccc(-c3ccccc3)cc2)C(=O)N[C@@H](CCc2ccccc2)C(=O)N1` )
## Output 30 to 100 µM

## Input Fill in: IC50 of `O=C(O)[C@@H]1Cc2ccc(cc2)NC(=O)[C@H](O)[C@@H](O)C(=O)N[C@H](Cc2cccs2)C(=O)N[C@@H](Cc2ccc(-c3cccc(O)c3)cc2)C(=O)N[C@H](Cc2ccccc2)C(=O)N1` is ___
## Output > 100 µM

## Input Fill blank: measured IC50 of the compound `O=C(O)[C@@H]1Cc2ccc(cc2)NC(=O)[C@@H]2CCCC[C@H]2C(=O)N[C@H](Cc2cccs2)C(=O)N[C@@H](Cc2ccc(-c3ccccc3)cc2)C(=O)N[C@H](Cc2ccccc2)C(=O)N1` is ____.
## Output 10 to 30 µM

###

- target entity: TNFα / TNFα receptor (TNFα R1/Fc) (Homo sapiens)
- Construct: purchased R&D Systems
- measurement protocol: Inhibition of binding of TNFα to the TNFα receptor (plate ELISA competition)
- test settings: Table 2; read-out: Activity (IC50, inhibition of TNFα binding to TNFα R1/Fc)
- Procedure: The compounds listed in Table 2 below were assayed for ability to inhibit binding of TNFα to the TNFα receptor (TNFα R1/Fc). The assays were performed as described in the following procedure: TNFα (R&D Systems) was coated on high binding plate wells (Corning 96-well) at a single uniform concentration of 15 nM, 100 μL/well in PBS. […] The TMB reaction was stopped with the addition of 0.5N HCl and then the plate was read for absorbance at 450 nm.
Numbered stars: 1 amine (or outer) side, 2 acyl side, 3 side chain; on linkers, the order of the positions; unused ones are H or OH. Bridge positions count the residues as written; N and C are the ends. Square brackets hold non-standard residues; d marks the D form. Peptide text beside a SMILES is read from it. Bip = N[C@@H](Cc1ccc(-c2ccccc2)cc1)C(=O)O; Phe(4-NH2) = Nc1ccc(C[C@H](N)C(=O)O)cc1; d(hPhe) = N[C@H](CCc1ccccc1)C(=O)O; Suc = O=C(CCC(=O)[*:2])[*:1]; 3Abz = Nc1cccc(C(=O)O)c1
value kind: IC50

>  <compound>
O=C1CCC(=O)N[C@H](CCc2ccccc2)C(=O)N[C@@H](Cc2ccc(-c3ccccc3)cc2)C(=O)N[C@H](Cc2ccccc2)C(=O)N[C@H](C(=O)Nc2cccc(C(=O)O)c2)Cc2ccc(cc2)N1 [Compound 352] ([d(hPhe)][Bip][dF][Phe(4-NH2)][3Abz]-OH; linker N-4 via Suc)

>  <target entity>
TNFα / TNFα receptor (TNFα R1/Fc) (Homo sapiens)

>  <value kind>
IC50

>  <experimental result>
> 100 µM

$$$$

## Input # lookup: IC50 of `O=C(O)[C@@H]1Cc2ccc(cc2)NC(=O)[C@H](O)[C@@H](O)C(=O)N[C@H](Cc2ccc(F)cc2)C(=O)N[C@@H](Cc2ccc(-c3ccccc3)cc2)C(=O)N[C@H](Cc2ccccc2)C(=O)N1`
## Output 30 to 100 µM

## Input Requested read-out: IC50. Entry: `O=C1COc2ccc(cc2)C[C@@H](C(=O)N[C@@H](Cc2ccc(O)cc2)C(=O)O)NC(=O)[C@H](CCc2ccccc2)NC(=O)[C@@H](Cc2ccc(-c3ccccc3)cc2)NC(=O)[C@H](Cc2ccc(-c3ccccc3)cc2)N1`
## Output < 10 µM

## Input Give the measured IC50 of `C[C@@H](NC(=O)[C@@H]1Cc2ccc(cc2)OCC(=O)N[C@@H](Cc2cccs2)C(=O)N[C@H](Cc2ccc(-c3ccccc3)cc2)C(=O)N[C@@H](Cc2ccccc2)C(=O)N1)C(=O)O` .
## Output < 10 µM
